- target.system: human TrkB on CHO cells (CHO-K1-hTrkB/pSRE-Luc) (human) (UniProt Q16620)
- Sequence (Q16620 32-822): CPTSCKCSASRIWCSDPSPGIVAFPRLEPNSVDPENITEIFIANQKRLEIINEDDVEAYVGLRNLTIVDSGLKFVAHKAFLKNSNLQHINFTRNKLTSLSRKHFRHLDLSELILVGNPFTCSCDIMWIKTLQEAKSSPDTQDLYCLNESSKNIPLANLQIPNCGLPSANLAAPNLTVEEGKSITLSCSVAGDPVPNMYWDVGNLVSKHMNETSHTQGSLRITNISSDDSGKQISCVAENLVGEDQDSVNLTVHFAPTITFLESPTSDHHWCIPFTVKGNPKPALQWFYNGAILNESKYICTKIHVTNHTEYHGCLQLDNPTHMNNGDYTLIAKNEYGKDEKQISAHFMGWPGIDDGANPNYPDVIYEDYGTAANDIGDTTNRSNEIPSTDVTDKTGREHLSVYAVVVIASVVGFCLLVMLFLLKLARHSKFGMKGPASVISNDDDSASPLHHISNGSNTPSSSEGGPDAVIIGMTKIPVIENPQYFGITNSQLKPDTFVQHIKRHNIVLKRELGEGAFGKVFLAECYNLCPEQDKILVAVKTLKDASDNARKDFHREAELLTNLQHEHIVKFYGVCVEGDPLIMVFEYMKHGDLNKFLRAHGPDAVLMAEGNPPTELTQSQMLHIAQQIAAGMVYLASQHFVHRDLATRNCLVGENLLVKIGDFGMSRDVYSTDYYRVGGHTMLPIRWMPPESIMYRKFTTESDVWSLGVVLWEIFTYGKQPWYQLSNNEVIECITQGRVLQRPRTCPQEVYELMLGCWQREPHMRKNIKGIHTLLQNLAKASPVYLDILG
- test.protocol: cell-based or functional assay
So I've got a bunch of binders here, and I need their BDNF activity in TrkBluciferase assay, EC50 [nM] values.
Express the result in nM but write the number alone.

Tell me the measured BDNF activity in TrkBluciferase assay, EC50 [nM] of pre-pro(R54A)-BDNF(-RGR)-His6 (ligand) HSDPARRGELSVCDSISEWVTAADKKTAVDMSGGTVTVLEKVPVSKGQLKQYFYETKCNPMGYTKEGCRGIDKRHWNSQCRTTQSYVRALTMDSKKRIGWRFIRIDTSCVCTLTIKGSGHHHHHH , please.
1.2

What does the data say about its BDNF activity in TrkBluciferase assay, EC50 [nM]? Entry: pre-pro-BDNF(-RGR; R81N)-T7-His6 (ligand, N-glycan at the introduced site (degree of glycosylation ++)) APMKEANIRGQGGLAYPGVRTHGTLESVNGPKAGSRGLTSLADTFEHVIEELLDEDQKVRPNEENNKDADLYTSRVMLSSQVPLEPPLLFLLEEYKNYLDAANMSMRVRRHSDPARRGELSVCDSISEWVTAADKKTAVDMSGGTVTVLEKVPVSKGQLKQYFYETKCNPMGYTKEGCRGIDKRHWNSQCNTTQSYVRALTMDSKKRIGWRFIRIDTSCVCTLTIKGSGMASMTGGQQMGHHHHHH
0.8
